Record: compiled IC50 on ITK (Homo sapiens, UniProt Q08881) from multiple reports.

Solved entries (count: 5):
{"columns": ["molecule", "IC50"],
 "data": [
  ["C=CC(=O)N1CCC[C@H](Oc2cc(CN3CCOCC3)cc(Nc3ncc(C)s3)n2)C1", "0.0473 µM"],
  ["C=CC(=O)N1CCC[C@@H](Nc2cc(CN3CCOCC3)cc(Nc3ncc(C)s3)n2)C1", "0.0016 µM"],
  ["C=CC(=O)N1CCC[C@@H](n2nc(Nc3cnn(C4CC4)c3)c3c(N)nccc32)C1", "> 1 µM"],
  ["CC#CC(=O)N1CC2(CC(n3nc(-c4ccc(Oc5ccccc5)cc4)c4cncnc43)C2)C1", "> 0.5 µM"],
  ["C=CC(=O)Nc1cccc(Nc2nc(Nc3cccc(OCCCNC(=O)CCCC[C@@H]4SC[C@@H]5NC(=O)N[C@@H]54)c3)ncc2C)c1", "< 0.01 µM"]
]}

Query: What measured IC50 goes with C=CC(=O)Nc1cccc(Nc2cc(Nc3ccc(Oc4ccccc4)cc3)ncn2)n1 ?
Response: 1 to 10 µM

Query: Could you do the same for C=CC(=O)NC1CCN(c2cc(CN3CCOCC3)cc(Nc3ncc(C)s3)n2)CC1 , please?
Response: 0.0438 µM

Query: Another molecule to check: CN(C)C/C=C/C(=O)Nc1cccc(-c2cnc3[nH]cc(-c4ccc(=O)n(C)c4)c3c2)c1
Response: > 1 µM

Query: Could you do the same for COc1cc(NC(=O)/C=C/CN(C)C)cc(-c2cnc3[nH]cc(-c4ccncn4)c3c2)c1 , please?
Response: ≤ 0.1 µM

Query: C=CC(=O)N1CC(Cn2nc(-c3ccc(Oc4ccccc4)cc3)c3cncnc32)C1 , same question.
Response: > 0.5 µM

Query: Param item: COc1cccc(-n2c(=O)c(C(=O)Nc3ccc(-c4nc(-c5ccnc(N6CC(OC)C6)c5)cnc4N)nc3)c(C)n2C)c1
Response: 0.004 µM

Query: Param item: C=CC(=O)N1CCC[C@@H](n2nc(-c3ccc(Oc4ccccc4)cc3F)c3cnccc32)C1
Response: > 0.5 µM

====

// merged dataset of pIC50 values, system = ITK (Homo sapiens, UniProt Q08881), multiple refs
pIC50: −log10 of the molar value.

Reference set, count: 5
{"columns": ["compound", "metric-name", "result"],
 "data": [
  ["C=CC(=O)Nc1cccc(-c2cccc(Nc3cc(C)[nH]n3)n2)c1", "pIC50", 6.00],
  ["CC#CC(=O)N1CC[C@@H](n2nc(-c3ccc(Oc4ccccc4)cc3)c3cncnc32)C1", "pIC50", "< 6.30"],
  ["C=CC(=O)N1CCC[C@@H]1Cn1nc(-c2ccc(Oc3ccccc3)cc2)c2cncnc21", "pIC50", "< 6.30"],
  ["C=CC(=O)Nc1cccc(Nc2nc(Nc3ccc(OCCOC)cc3)ncc2F)c1", "pIC50", "7.00 to 8.00"],
  ["c1cc(Nc2ccc(N3CCCCC3)cc2)c2cc[nH]c2n1", "pIC50", "≥ 5.00"]
]}

Query: Name the recorded pIC50 for C=CC(=O)Nc1cccc(Nc2nc(Nc3ccc(N4CCS(=O)(=O)CC4)nc3)ncc2F)c1 .
Response: > 8.00

Query: Query O=C(c1cccc(O)c1F)c1c[nH]c2ncc(-c3cccnc3)cc12 next
Response: ≥ 5.00

Query: C=CC(=O)N1CCC[C@@H](n2nc(-c3ccc(Oc4ccncc4)cc3)c3cncc(Cl)c32)C1 ?
Response: < 6.00

Query: Queued: COc1cccc(-c2cc3c(s2)CCc2cnc(Nc4cccc(S(C)(=O)=O)c4)nc2-3)c1
Response: > 6.00

Query: Quick one: NS(=O)(=O)c1cccc(Nc2ncc3c(n2)-c2cc(-c4ccccc4)sc2CC3)c1
Response: > 6.00

Query: Also C=CC(=O)N1C[C@@H]2C[C@H]1[C@@H](n1nc(-c3ccc(C(=O)Nc4cc(F)ccn4)cc3)c3c(N)ncnc31)C2 ?
Response: 7.32

Query: Another compound to check: C=CC(=O)Nc1cccc(-c2cc(-c3ccccc3)cc(Nc3cc(C)[nH]n3)n2)c1
Response: 6.89

Query: Then C=CC(=O)NC1CN(c2cnc3[nH]cc(-c4ccncc4)c3c2)C1 ?
Response: ≥ 6.00
